Assay: chemical genetic growth profiling, strain panel (AID 1159580);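 also: tested at 20 µM; growth read once vehicle control cultures reached saturation at 30 °C; 1 = growth at the plate median or of vehicle wells; lower values mean less growth of the strain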
Details: S. cerevisiae deletion strains, growth OD, locus YJL092W, strain hpr5, hits give low values
Screen size: about 5,500 compounds; about 2,000 (36%) were called active. Not shown: some 18% with an inconclusive outcome. The list shows a part of the results.
recorded metric: normalized growth
One number for each entry.

Items follow; give normalized growth for each.
1. O=c1ccc2cc(O[C@@H]3O[C@H](CO)[C@@H](O)[C@H](O)[C@H]3O)c(O)cc2o1
2. COc1cc(OC)c(C(C)=O)c(O)c1C
3. CCNc1nc(Cl)nc(NC(C)C)n1
4. COc1ccc2c(=O)c(CC(=O)O)coc2c1
5. c1ccc2c(c1)[nH]c1cnccc12
6. COc1ccc2c(c1)[nH]c1c(C)nccc12

## Result
1. 0.994
2. 0.946
3. 0.998
4. 0.974
5. 0.995
6. 0.996

###

Assay: chemical genetic growth profiling, strain panel (AID 1159580);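 also: tested at 20 µM; growth read once vehicle control cultures reached saturation at 30 °C; 1 = growth at the plate median or of vehicle wells; lower values mean less growth of the strain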
Settings: S. cerevisiae deletion strains, growth OD, locus YKL085W, strain MDH1 (second series), hits give low values
Screen size: about 5,500 compounds; about 2,000 (36%) were called active. Roughly 18% stayed inconclusive and do not appear here. The list shows a part of the results.
So I've got a bunch of compounds here, and I need their normalized growth values.
One number for each entry.

Solved cases (5 shown):
Measured normalized growth of `CC1=C2[C@](C)(C=CC1=O)C[C@H](O)[C@H]1[C@H](C)C(=O)O[C@]21C` : 1.02

Measured normalized growth of `COc1cc(O)c(C)c(O)c1` : 1.02

Measured normalized growth of `CC(C)=CCc1c(O)cc2occ(-c3ccc4c(c3)OCO4)c(=O)c2c1O` : 1

Measured normalized growth of C[N+]1(C)C2CC[C@H]1CC(OC(=O)C(O)c1ccccc1)C2 (some centres not stated) : 1

Measured normalized growth of `COc1c2c(cc3occ(-c4ccc5c(c4)OCO5)c(=O)c13)OC(C)(C)C=C2` : 0.965

Items follow; give normalized growth for each.
1. Cc1cc(C)nc(NS(=O)(=O)c2ccc(N)cc2)n1
2. Cn1c([N+](=O)[O-])cnc1COC(N)=O
3. C[C@]12CCC3C(CC[C@H]4C[C@@H](Cl)CC[C@]34C)C1CCC2=O (some centres not stated)
4. CC(C(=O)O)c1ccc(N2Cc3ccccc3C2=O)cc1 (configuration not stated)
5. O=c1c(-c2ccc3c(c2)OCO3)coc2cc(O)ccc12
6. CCOC(=O)C1=C(C)NC(C)=C(C(=O)OC)C1c1cccc([N+](=O)[O-])c1 (configuration not stated)
7. COC(=O)C1=CO[C@@H](O[C@@H]2O[C@H](CO)[C@@H](O)[C@H](O)[C@H]2O)[C@@H]2[C@@H](C)[C@@H](O)C[C@H]12

## Result
[0.971, 0.994, 0.998, 0.99, 0.995, 0.997, 0.978]

Items follow; give normalized growth for each.
1. Cc1cccc(N(C)C(=S)Oc2ccc3ccccc3c2)c1
2. COc1cc(OC)cc(OC)c1
3. CC1=C2CCC3C(CC[C@]4(C)C(=O)CCC34)[C@@]2(C)CCC1=O (some centres not stated)
4. C[C@]12CCC3C(CC[C@H]4CC(=O)CC[C@]34C)C1CCC2=O (some centres not stated)

## Result
[0.979, 0.211, 0.983, 0.97]

Items follow; give normalized growth for each.
1. CC(C)(O)CC[C@@H](O)[C@](C)(O)C1CC[C@@]2(O)C3=CC(=O)C4C[C@@H](O)[C@@H](O)C[C@]4(C)C3CC[C@]12C (some centres not stated)
2. COc1ccc2c(=O)c(-c3cc4c(cc3OC)OCO4)coc2c1
3. COc1cc(O)c(C(=O)O)c(O)c1
4. COc1cc(O)c(C(C)=O)c(OC)c1
5. C[C@]12CCC3C(CC[C@H]4C[C@@H](O)CC[C@]34C)C1CCC2=O (some centres not stated)
6. COc1cc(OC)c2c(c1Cl)OC1(C2=O)C(O)=CC(=O)CC1C (configuration not stated)

## Result
[1.01, 1.02, 0.961, 1.01, 0.973, 1.01]
